- Tested on: Leptinotarsa decemlineata
- EXPERIMENT DESCRIPTION: Antifeedant activity against Leptinotarsa decemlineata assessed as inhibition of feeding at 50 ug/cm2 by choice feeding assay relative to untreated control
- Assay type: functional
QUANTITY: inhibition at 50 µg/cm2 (%)
Answer with a number only, understood to be in %.

Q. Name the recorded inhibition at 50 µg/cm2 for `C=C1CCC[C@@H]2[C@@](C)(C/C=C(\CC=O)C(C)=O)[C@H](C)CC[C@@]12C` .
A. 89.9

Q. Recorded inhibition at 50 µg/cm2 for C=C1CCC[C@@H]2[C@@](C)(C/C=C3/CC(OC(C)=O)OC3OC(C)=O)[C@H](C)CC[C@@]12C (some centres undefined) , please?
A. 33.8

Q. Look up inhibition at 50 µg/cm2 for this molecule: CC(=O)OC1C/C(=C/C[C@@]2(C)[C@H](C)CC[C@]3(C)[C@@H]2CCC[C@@]32CO2)C(OC(C)=O)O1 (some centres undefined)
A. 91.2

Q. Recorded inhibition at 50 µg/cm2 for CC(=O)OC/C=C(\COC(C)=O)C(C[C@@]1(C)[C@H](C)CC[C@]2(C)[C@@H]1CCCC2(O)CO)OC(C)=O (some centres undefined) , please?
A. 97.1
